Biological target: Complement factor B [470-764] (UniProt P00751)
Sequence (P00751 470-764): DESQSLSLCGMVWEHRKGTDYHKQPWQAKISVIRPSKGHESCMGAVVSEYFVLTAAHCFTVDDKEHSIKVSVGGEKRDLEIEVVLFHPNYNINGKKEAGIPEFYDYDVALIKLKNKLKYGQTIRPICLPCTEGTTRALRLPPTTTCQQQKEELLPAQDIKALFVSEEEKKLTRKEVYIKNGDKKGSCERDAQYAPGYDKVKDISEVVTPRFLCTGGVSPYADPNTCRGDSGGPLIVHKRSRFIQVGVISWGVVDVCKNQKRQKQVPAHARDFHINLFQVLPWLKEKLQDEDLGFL
Assay Endpoint: pIC50
Scale note: pIC50 = -log10(concentration in M).

Problem: For COc1cc(C)c2[nH]ccc2c1CN1CC2CCC2C1c1ccc(C(=O)O)cc1 (stereo unspecified) , what is its reported pIC50?
Result: 7.35

Value source: BindingDB's records for patent US20250243186
